# Tested on: MDA-MB-231 breast
# experiment-summary: NCI-60 one-dose screen, 48 h (100 = growth as untreated, 0 = no growth, -100 = all killed)
# experimental-conditions: 10 µM unless noted
The panel holds about 83,000 compounds, 20% with a hit somewhere; the sample as a whole holds those more often.
Note to self: values exactly at 80% are MET. So growth at or above 80% is MET, below is NOT MET.

Reported growth reaches at least 80% for O=C(O)c1ccc2c(c1)CCC2 ?
MET

Reported growth reaches at least 80% for CCOC(=O)c1c(-c2ccc(Cl)cc2)c(C#N)c(=O)n(-c2ccccc2CC)c1N ?
MET

Reported growth reaches at least 80% for CN(C)CCCn1c(=O)c2ccccc2c2ccccc21 ?
NOT MET

Reported growth reaches at least 80% for NC1=NCc2nc3ccccc3c(=O)n2C1 ?
MET

Reported growth reaches at least 80% for CC1(C)CC(=O)CC2(C1)N=C(N)Nc1nc3ccccc3n12 (stereo unspecified) ?
MET

Reported growth reaches at least 80% for COc1nc(N(C)O)nc(N(C)O)n1 ?
NOT MET

Reported growth reaches at least 80% for Cc1ccc(NS(=O)(=O)c2ccc3c(c2)C2OCCC2C(c2ccc(C(=O)C(C)C)cc2)N3)cc1C (stereo unspecified) ?
NOT MET

Reported growth reaches at least 80% for O=S(=O)(O)c1ccc(N/N=C/c2ccccc2Cl)cc1 ?
MET

Reported growth reaches at least 80% for O=C(NCCNc1cc(-c2cn(-c3ccccc3)nc2-c2cccc(O)c2)ccn1)Nc1ccccc1 ?
NOT MET

Reported growth reaches at least 80% for COc1ccc(C2c3ccc4ccccc4c3Oc3nc(C)[nH]c(=O)c32)cc1 (stereo unspecified) ?
MET

Reported growth reaches at least 80% for Nc1n[nH]c2cc(F)c([C@@H]3Nc4c(F)cc5[nH]ncc5c4[C@H]4C5CCC(C5)[C@@H]34)cc12 (stereo partly specified) ?
NOT MET

Reported growth reaches at least 80% for Cc1ccc(N2CCN(C(=S)c3cccs3)CC2)cc1 ?
MET

Reported growth reaches at least 80% for CNc1ccc(NC)c2c1C(=O)c1ccccc1C2=O ?
NOT MET

Reported growth reaches at least 80% for O=C(NC(Cc1nnc2n(Cc3ccccc3)c(=O)c3c4c(sc3n12)CCCC4)c1ccc(Cl)cc1)c1ccccc1 (stereo unspecified) ?
MET

Reported growth reaches at least 80% for COc1cc(/C=C/C(=O)N2CCN(C(=O)c3cc(OC)c(OC)c(OC)c3)CC2)ccc1OCCCN1C(=O)c2cccc3cccc(c23)C1=O ?
MET

Reported growth reaches at least 80% for COc1cccc(-c2nn(-c3ccccc3)cc2-c2ccnc(NCCNC(=O)Nc3ccccc3)c2)c1 ?
NOT MET

Reported growth reaches at least 80% for COc1cc(/C=N/n2c(CN3CCOCC3)nc3ccccc3c2=O)cc(OC)c1OC ?
MET

Reported growth reaches at least 80% for Fc1ccc(CNc2c3ccccc3nc3ccccc23)cc1F ?
NOT MET

Reported growth reaches at least 80% for COc1ccc(CNC(=O)C(O)C(Cc2ccccc2)NC(=O)c2[nH]c3ccccc3c(=O)c2C)cc1OC (stereo unspecified) ?
MET
